Test: Lipophilicity, log P of the compound
Format: physicochemical
Details: octanol/water
Measured Attribute: logP

# example entries with known answers
- Compound: "CCCCCCCC(=O)Oc1c(OC)ccc2cc3[n+](cc12)CCc1cc2c(cc1-3)OCO2"
  logP: 1.69
- Compound: "CCCC(=O)Oc1c(OC)ccc2cc3[n+](cc12)CCc1cc2c(cc1-3)OCO2"
  logP: -0.43
- Compound: "CCCCCCCCCCCCCCCCCC(=O)Oc1c(OC)ccc2cc3[n+](cc12)CCc1cc2c(cc1-3)OCO2"
  logP: 6.98

A = CCCCCCCCCCCCCCCC(=O)Oc1c(OC)ccc2cc3[n+](cc12)CCc1cc2c(cc1-3)OCO2.[Cl-]
B = COc1ccc2cc3[n+](cc2c1O)CCc1cc2c(cc1-3)OCO2 [BERBERRUBINE CHLORIDE]
C = CCCCC(=O)Oc1c(OC)ccc2cc3[n+](cc12)CCc1cc2c(cc1-3)OCO2
D = COc1ccc2cc3[n+](cc2c1OCOC(=O)c1ccccc1)CCc1cc2c(cc1-3)OCO2
Order each entry by recorded logP, climbing from the minimum. Use the labels to give the ranking in the order requested.
B, C, D, A
(B: -1.06, C: 0.1, D: 0.97, A: 5.91)

###

Assay: Lipophilicity, log P of the compound
Format: physicochemical
Conditions: octanol/water
Measured Attribute: logP

The following compounds have reported results that may help.
- Compound: "CCCCCCCCCC(=O)Oc1c(OC)ccc2cc3[n+](cc12)CCc1cc2c(cc1-3)OCO2"
  logP: 2.74
- Compound: "CCOC(=O)Oc1c(OC)ccc2cc3[n+](cc12)CCc1cc2c(cc1-3)OCO2"
  logP: -1.18
- Compound: "COc1ccc2cc3[n+](cc2c1OC)CCc1cc2c(cc1-3)OCO2.[Cl-] [BERBERINE CHLORIDE]"
  logP: -0.92
- Compound: "COc1ccc2cc3[n+](cc2c1OC(=O)c1ccccc1)CCc1cc2c(cc1-3)OCO2"
  logP: 0.58
- Compound: "COc1ccc2cc3[n+](cc2c1OC(=O)/C=C/c1ccccc1)CCc1cc2c(cc1-3)OCO2"
  logP: 1.03

1 = COc1ccc2cc3[n+](cc2c1OCOC(=O)C(C)(C)C)CCc1cc2c(cc1-3)OCO2
2 = CCCCCCCCCCCC(=O)Oc1c(OC)ccc2cc3[n+](cc12)CCc1cc2c(cc1-3)OCO2
3 = COc1ccc2cc3[n+](cc2c1OC(=O)C(C)(C)C)CCc1cc2c(cc1-3)OCO2
4 = CCCCCCC(=O)Oc1c(OC)ccc2cc3[n+](cc12)CCc1cc2c(cc1-3)OCO2
Reorder: logP, max to min. Please list the labels according to the requested order.
2, 4, 1, 3
(2: 3.8, 4: 1.16, 1: -0.06, 3: -0.25)

# credit: ChEMBL document CHEMBL1221278
